- Test Summary: qHTS assay to identify small molecule antagonists of the constitutive androstane receptor (CAR) signaling pathway - cell viability counter screen (AID 1224837); further: nearly all actives have a fitted effect of over 45% in size
- Assay Setup: HepG2-CYP2B6-hCAR viability, CellTiter-Fluor, 23 h, co-treated with 50 nM CITCO; series mostly up to 92.4 µM
Inconclusive results are not listed. Activity calls are given as the source filed them. The call rests on the fitted dose curve; in most records, active means well fitted cell-killing curve with a large enough effect in the repeat runs; inconclusive means weak or mixed curves, or effect the other way; inactive means flat fitted curve, though single readings scatter.
Entry note: the call must match one of 1 = active, 0 = inactive

Below, 3 molecules whose answers are already recorded.
CC(C)OC(=O)c1ccccc1C(=O)OC(C)C : 0
Cc1cccc(C)c1NC(=O)c1cc(S(N)(=O)=O)c(Cl)cc1O : 0
CC(C)Cc1ccc(CC(=O)O)cc1 : 0

Query: Lab log entry: c1ccc(CNc2ncnc3c2ncn3C2CCCCO2)cc1 (centres undefined) — outcome as called in the assay?
Result: 0

Query: Lab log entry: CCCCCCC(CO)CCCC (centres undefined) — outcome as called in the assay?
Result: 0

Query: Lab log entry: `CCC(=O)OCc1ccc(OC)cc1` — outcome as called in the assay?
Result: 0

Query: Lab log entry: CC(=O)OCCC(C)CC(C)(C)C (centres undefined) — outcome as called in the assay?
Result: 0

Query: Lab log entry: `Nc1cccc2c(N)cccc12` — outcome as called in the assay?
Result: 1

Query: Lab log entry: CC1C(C)(C)C2=C(C(=O)CCC2)C1(C)C (centres undefined) — outcome as called in the assay?
Result: 0

Query: Lab log entry: `CCN(CC)CCOC(=O)C(c1ccccc1)c1ccccc1` — outcome as called in the assay?
Result: 0

Query: Lab log entry: `O=S(=O)(Cl)c1c(Cl)cccc1Cl` — outcome as called in the assay?
Result: 0

Query: Lab log entry: `Nc1ccn([C@H]2CS[C@@H](CO)O2)c(=O)n1` — outcome as called in the assay?
Result: 0

Query: Lab log entry: `O=C(O)CCC(=O)c1ccc(-c2ccccc2)cc1` — outcome as called in the assay?
Result: 0

Query: Lab log entry: CCCCC(CC)COS(=O)(=O)O (centres undefined) — outcome as called in the assay?
Result: 0

Query: Lab log entry: `CCCCC[C@H](O)/C=C/[C@H]1[C@H](O)CC(=O)[C@@H]1C/C=C\CCCC(=O)O` — outcome as called in the assay?
Result: 0

Query: Lab log entry: `FC(F)(F)C(F)(F)C(F)(F)C(F)(F)CCI` — outcome as called in the assay?
Result: 0

Query: Lab log entry: `CC(C)(C)S` — outcome as called in the assay?
Result: 0

Query: Lab log entry: `Oc1cccc2[nH]ccc12` — outcome as called in the assay?
Result: 0

Query: Lab log entry: `CCNc1nc(N)nc(Cl)n1` — outcome as called in the assay?
Result: 0

Query: Lab log entry: `CCCCCCCCCCCCCOS(=O)(=O)O` — outcome as called in the assay?
Result: 0

Query: Lab log entry: `CC(C)c1ccc(C#N)cc1` — outcome as called in the assay?
Result: 0

Query: Lab log entry: `Cc1ccc2c(c1)CCCN2` — outcome as called in the assay?
Result: 0

Query: Lab log entry: `O=C(O)CNC(=O)c1ccccc1I` — outcome as called in the assay?
Result: 0
